tested on: ABL1(F317L)-phosphorylated; conditions: Compound Concentration (nM):1000;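 also: KINOMEscan scanMAX binding as percent activity remaining versus control; lower means stronger binding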
MET means recorded Percent Control is 70% or above; NOT MET means it is below 70%.

Task: Does Cc1cc(O)cc(C)c1/C=C/c1cncc(C(N)=O)c1 [GW435821X] have a reported Percent Control of at least 70%?
Result: NOT MET

Task: Given the entry COc1cc(N2CCN(C(C)C)CC2)ccc1Nc1nc(Nc2ccc(F)cc2C(=O)NC[C@@H](O)CO)c2cc[nH]c2n1 [GSK1392956A] , answer whether its Percent Control meets or surpasses 70%.
Result: NOT MET

---

tested on: ULK2; settings: Compound Concentration (nM):1000
// class 0 strictly below 80% in Percent Control; class 1 otherwise

Check out these entries, answers already filled in.
1. Cl.c1ccc(Cc2nc3ccc(Nc4ncnc5ccccc45)cc3[nH]2)cc1 [GR269666A]: class 1
2. CC(C)COC(=O)c1ccc2c(c1)/C(=C/Nc1ccc(S(N)(=O)=O)cc1)C(=O)N2 [GW416981X]: class 0
3. Cl.O=C(O[C@H]1CN[C@H](C#Cc2cc3ncnc(Nc4ccc5c(cnn5Cc5ccccc5)c4)c3s2)C1)N1CCOCC1 [GSK200398A]: class 1
4. C/C(Nc1ccc(S(N)(=O)=O)cc1)=C1/C(=O)Nc2ccccc21 [GW335962X]: class 0
5. O=C(Nc1n[nH]c2nc(-c3ccc(O)cc3)c(Br)cc12)C1CC1: class 1

Task: Is it the case that COc1cc(N2CCN(C(C)C)CC2)ccc1Nc1nc(Nc2ccc(F)cc2C(=O)NC[C@@H](O)CO)c2cc[nH]c2n1 [GSK1392956A] has Percent Control reaching or exceeding 80%?
Result: class 0

Task: Say whether CCc1ccc(Oc2nccc(-c3c(-c4ccc(F)cc4)ncn3C3CCNCC3)n2)cc1 shows Percent Control of 80% or more.
Result: class 0

Task: Confirm if Percent Control reported for the compound NS(=O)(=O)c1ccc(N/N=C2\C(=O)Nc3ccc(C(=O)NCc4ccncc4)cc32)cc1 [GW300657X] is 80% or above.
Result: class 0

Task: Form field: Percent Control at least 80%? Entry: NS(=O)(=O)c1ccc(N/N=C2\C(=O)Nc3ccc(Cl)cc32)cc1 [GW280670X]
Result: class 1

Task: Hello, I need to know if Nc1ncnc2occ(-c3ccc(NC(=O)Nc4cc(C(F)(F)F)ccc4F)cc3)c12 [GW770249X] has measured Percent Control not below 80%. Thanks!
Result: class 1

Task: Please check the record COc1cc(/C=N/Nc2ncnc3[nH]ncc23)ccc1O [GW578748X] and state if its Percent Control is at or above 80%.
Result: class 0

Task: Is Percent Control at least 80%? Consider COc1cccc(-n2ncc3c(N/N=C/c4ccncc4)ncnc32)c1 [GW784752X]
Result: class 0

Task: Could you please find out whether CN(C)CCNC(=O)Nc1ccc(N(C)c2ccnc(Nc3ccc(CS(C)(=O)=O)cc3)n2)cc1.Cl [GW830900A] has Percent Control that meets 80% or exceeds it?
Result: class 1

---

system: KIT(V559D,T670I); conditions: Compound Concentration (nM):1000
Quantity: Percent Control (%)
One number for each entry, in %.

1. CCS(=O)(=O)c1ccc(OC)c(Nc2ncc(-c3cccc(F)c3)o2)c1 [GW621970X]: 35
2. CN(C)c1cc2c(Nc3ccc4c(cnn4Cc4ccccc4)c3)ncnc2cn1 [GW282974X]: 96
3. CC1=C(C(=O)Nc2ccc3[nH]ncc3c2)C(c2ccc3ccccc3c2)CC(=O)N1 (centres unmarked) [GSK270822A]: 84
4. COc1ccc2[nH]c3c4[nH]c5ccc(OC)cc5c4c4c(c3c2c1)C(=O)NC4=O [GW296115X]: 49

I'm hoping you can list Percent Control for every compound here, please.
1. COC(=O)Nc1nc2ccc(Oc3ccc(NC(=O)Nc4cc(C(F)(F)F)ccc4F)cc3)cc2s1.Cl [GW693917A]
2. CN(C)CCNC(=O)Nc1ccc(N(C)c2ccnc(Nc3ccc(CS(C)(=O)=O)cc3)n2)cc1.Cl [GW830900A]
3. Cl.O=C(O[C@H]1CN[C@H](C#Cc2cc3ncnc(Nc4ccc5c(cnn5Cc5ccccc5)c4)c3s2)C1)N1CCOCC1 [GSK200398A]
4. COc1cc2ncnc(Nc3ccc4c(cnn4Cc4ccccc4)c3)c2cc1OC.Cl [GW282449A]

Result:
2.5
14
87
100

---

tested on: PRKX; conditions: Compound Concentration (nM):1000
Quantity: Percent Control (%)
Numbers only, in %.

These recorded examples may help you get a feel for the data.
1. C[C@@H](Oc1cc(-n2cnc3ccc(OC4CCN(C)CC4)cc32)sc1C(N)=O)c1ccccc1Cl [GSK579289A]: 74
2. NS(=O)(=O)c1ccc(N/N=C2\C(=O)Nc3ccc(C(=O)NCCc4c[nH]cn4)cc32)cc1 [GW300660X]: 100
3. Cl.c1ccc(Cc2nc3ccc(Nc4ncnc5ccccc45)cc3[nH]2)cc1 [GR269666A]: 100

Task: Please report Percent Control for the following compound: NS(=O)(=O)c1ccc(N/N=C2\C(=O)Nc3ccc(-c4cnco4)cc32)cc1
Result: 100

---

Kindly state Percent Control for each of the entries shown.
test system: CDKL2; conditions: Compound Concentration (nM):1000
Answers are plain numbers, in %.

1) NS(=O)(=O)c1ccc(N/N=C2\C(=O)Nc3ccc(-c4cnco4)cc32)cc1: 49

Dear colleague, could you send me Percent Control for each of the items below? Thanks.
1. CCc1ccc(Oc2nccc(-c3c(-c4ccc(F)cc4)ncn3C3CCNCC3)n2)cc1
2. Cl.O=S1CCN(Cc2ccc(-c3ccc4ncnc(Nc5ccc(OCc6ccccc6)c(F)c5)c4c3)o2)CC1 [GW576924A]
3. COc1cc2ncn(-c3cc(O[C@H](C)c4ccccc4Cl)c(C(N)=O)s3)c2cc1OC [GSK237701A]
4. O=C1Nc2ccc(C(=O)c3ccco3)cc2C1=Cc1cc(Cl)c(O)c(Cl)c1 [GW406108X]
5. Cl.c1ccc(Cc2nc3ccc(Nc4ncnc5ccccc45)cc3[nH]2)cc1 [GR269666A]
6. CN(C)c1cc2c(Nc3ccc4c(cnn4Cc4ccccc4)c3)ncnc2cn1 [GW282974X]
7. CCS(=O)(=O)c1ccc(OC)c(Nc2ncc(-c3cccc(F)c3)o2)c1 [GW621970X]
8. COc1cc(/C=N/Nc2ncnc3[nH]ncc23)ccc1O [GW578748X]

Result:
1. 96
2. 100
3. 86
4. 100
5. 100
6. 100
7. 100
8. 100

---

What Percent Control was measured for each of the following?
tested on: ROCK1; conditions: Compound Concentration (nM):1000
Numbers only, in %.

Some solved cases for reference:
1. CCS(=O)(=O)c1ccc(OC)c(Nc2ncc(-c3cccc(F)c3)o2)c1 [GW621970X]: 96
2. CN1CCN(C(=O)c2ccc(NC(=O)Nc3ccc(N(C)c4ccnc(Nc5ccc(CS(C)(=O)=O)cc5)n4)cc3)cc2)CC1.Cl [GW830263A]: 17

Please look at the items below and tell me Percent Control for each one, in order.
1. COc1ccccc1-c1cc(/C=C2\C(=O)Nc3ncc(Br)cc32)cc(Br)c1O [GW442130X]
2. COc1ccc2c(-c3ccnc(Nc4cccc(OC(F)(F)F)c4)n3)cnn2n1 [GW810372X]
3. NS(=O)(=O)c1ccc(N/N=C2\C(=O)Nc3ccc(-c4cnco4)cc32)cc1 [GW276655]

Result:
[96, 100, 8.8]

---

system: PKN1; conditions: Compound Concentration (nM):1000
Cut-off 90% on Percent Control, inclusive. At or above means True; below means False.

Previously resolved entries follow.
1) NS(=O)(=O)c1ccc(Nc2ncc(-c3ccccc3)o2)cc1 [GW572399X]: True
2) Cl.O=C(Nc1ccc(Oc2ccc3[nH]c(NC(=O)c4ccccc4)nc3c2)cc1)Nc1cc(C(F)(F)F)ccc1F [GW709042A]: True
3) Nc1ncnc2occ(-c3ccc(NC(=O)Nc4cc(C(F)(F)F)ccc4F)cc3)c12 [GW770249X]: True
4) NS(=O)(=O)c1ccc(N/N=C2\C(=O)Nc3ccc(Cl)cc32)cc1 [GW280670X]: True
5) CC1=C(C(=O)Nc2ccc3[nH]ncc3c2)C(c2ccc(Cl)c(Cl)c2)CC(=O)N1 (centres unmarked) [GSK299115A]: False

Task: Does C[C@@H](Oc1cc(-n2cnc3ccc(OC4CCN(C)CC4)cc32)sc1C(N)=O)c1ccccc1Cl [GSK579289A] have a reported Percent Control of at least 90%?
Result: False

Task: Is reported Percent Control greater than or equal to 90% here: COc1ccc2c(-c3ccnc(Nc4cccc(OC(F)(F)F)c4)n3)cnn2n1 [GW810372X]
Result: True

Task: Could you please find out whether COc1ccc2[nH]c3c4[nH]c5ccc(OC)cc5c4c4c(c3c2c1)C(=O)NC4=O [GW296115X] has Percent Control that meets 90% or exceeds it?
Result: False

Task: Determine whether this compound has Percent Control no lower than 90%: COc1cc(N2CCN(C(C)C)CC2)ccc1Nc1nc(Nc2ccc(F)cc2C(=O)NC[C@@H](O)CO)c2cc[nH]c2n1 [GSK1392956A]
Result: True

Task: Quick check: does COc1ccc2cc(-c3c(-c4ccncc4)nc(-c4ccc(S(C)(=O)=O)cc4C)n3C)ccc2c1 [SB-633825] have Percent Control greater than or equal to 90%?
Result: False

Task: Hello, I need to know if COc1cccc(-c2c[nH]c3c(N/N=C/c4ccncc4)ncnc23)c1 [GW814408X] has measured Percent Control not below 90%. Thanks!
Result: True

Task: Could you please find out whether CCn1c(-c2nonc2N)nc2c(C#CC(C)(C)O)nc(OCCNC)cc21.Cl [GSK949675] has Percent Control that meets 90% or exceeds it?
Result: False

Task: Is Percent Control for COc1cc2ncnc(Nc3ccc4c(cnn4Cc4ccccc4)c3)c2cc1OC.Cl [GW282449A] at or above 90%?
Result: True

Task: Does Percent Control meet or surpass 90% for NS(=O)(=O)c1ccc(N/N=C2\C(=O)Nc3ccc(-c4cnco4)cc32)cc1 [GW276655] ?
Result: True
